- Tested on: Staphylococcus aureus
- run description: Antimicrobial activity against Staphylococcus aureus ATCC 25923 assessed as reduction in microbial growth by CLSI based broth microdilution method
- Format: functional
attribute measured: MIC (µg/mL)
Your answer should be a plain number; it is taken to be in µg/mL.

* C=C(C)C1CC=C(C=O)CC1 (centres undefined) | 1230
* CC[C@H](C)[C@H](NC(=O)[C@@H](NC(=O)[C@@H](CCCNC(=N)N)NC(=O)[C@H](C)NC(=O)[C@H](C)NC(=O)[C@@H](N)Cc1cccc2ccccc12)[C@@H](C)CC)C(=O)N[C@@H](CC(C)C)C(=O)N[C@H](CCCNC(=N)N)C(=O)N[C@@H](Cc1c[nH]c2ccccc12)C(=O)N[C@H](CCCNC(=N)N)C(=O)N[C@@H](Cc1ccccc1)C(=O)N[C@@H](CCCNC(=N)N)C(=O)O | 16
* CC(C)=CCCC(C)CC=O (centres undefined) | 16400

Now look at this one.
Query: So what MIC did Cc1ccc(C(C)C)cc1O get with Staphylococcus aureus?
Result: 128

* * *

- System: Staphylococcus aureus
- run description: Antimicrobial activity against Staphylococcus aureus 43300 assessed as reduction in microbial growth by CLSI based broth microdilution method
- Type: functional
# note: boundary value 1000 µg/mL maps to condition not met; MIC below it maps to condition met

Here's what some known entries look like.
- Cc1ccc(C(C)C)cc1O: condition met
- Cc1ccc(C(C)C)c(O)c1: condition met
- CC(C)c1ccc(C=O)cc1: condition not met
- CC(C)=CCCC(C)CC=O (configuration not stated): condition not met
- CC[C@H](C)[C@H](NC(=O)[C@@H](NC(=O)[C@@H](CCCNC(=N)N)NC(=O)[C@H](C)NC(=O)[C@H](C)NC(=O)[C@@H](N)Cc1cccc2ccccc12)[C@@H](C)CC)C(=O)N[C@@H](CC(C)C)C(=O)N[C@H](CCCNC(=N)N)C(=O)N[C@@H](Cc1c[nH]c2ccccc12)C(=O)N[C@H](CCCNC(=N)N)C(=O)N[C@@H](Cc1ccccc1)C(=O)N[C@@H](CCCNC(=N)N)C(=O)O: condition met

Now for a further molecule.
Query: Does the reported MIC of C=C(C)C1CC=C(C=O)CC1 (configuration not stated) stay below 1000 µg/mL?
Result: condition met

* * *

- System: Pseudomonas aeruginosa
- run description: Antimicrobial activity against Pseudomonas aeruginosa ATCC 27853 assessed as reduction in microbial growth by CLSI based broth microdilution method
- Assay type: functional
Listed here: items and their measured MIC.
API: value field is a number in µg/mL; no unit string.

Example entries and their recorded answers appear below.
• CC(C)c1ccc(C=O)cc1 = 8190
• CC(C)=CCCC(C)CC=O (configuration not stated) = 16400
• Cc1ccc(C(C)C)c(O)c1 = 256
• CC[C@H](C)[C@H](NC(=O)[C@@H](NC(=O)[C@@H](CCCNC(=N)N)NC(=O)[C@H](C)NC(=O)[C@H](C)NC(=O)[C@@H](N)Cc1cccc2ccccc12)[C@@H](C)CC)C(=O)N[C@@H](CC(C)C)C(=O)N[C@H](CCCNC(=N)N)C(=O)N[C@@H](Cc1c[nH]c2ccccc12)C(=O)N[C@H](CCCNC(=N)N)C(=O)N[C@@H](Cc1ccccc1)C(=O)N[C@@H](CCCNC(=N)N)C(=O)O = 32

Query: Name the reported MIC value associated with the compound CC(C)=CCC/C(C)=C/C=O
Result: 4100

Query: Which MIC is listed for C=C(C)C1CC=C(C=O)CC1 (configuration not stated) ?
Result: 1230

Query: I'd like to know its MIC. The compound in question is Cc1ccc(C(C)C)cc1O
Result: 128

* * *

- run description: Acute toxicity in C57BL/6 mouse assessed as lethal dose measured for 5 days
- measurement conditions: in vivo, time 5 day
attribute measured: LD50 at 120 h
A complete answer gives the number followed by the unit.

Query: Requested read-out: LD50 at 120 h. Entry: CC[C@H](C)[C@H](NC(=O)[C@@H](NC(=O)[C@@H](CCCNC(=N)N)NC(=O)[C@H](C)NC(=O)[C@H](C)NC(=O)[C@@H](N)Cc1cccc2ccccc12)[C@@H](C)CC)C(=O)N[C@@H](CC(C)C)C(=O)N[C@H](CCCNC(=N)N)C(=O)N[C@@H](Cc1c[nH]c2ccccc12)C(=O)N[C@H](CCCNC(=N)N)C(=O)N[C@@H](Cc1ccccc1)C(=O)N[C@@H](CCCNC(=N)N)C(=O)O
Result: 1010 mg/kg

* * *

- System: Escherichia coli
- run description: Antimicrobial activity against Escherichia coli UB 1005 assessed as reduction in microbial growth by CLSI based broth microdilution method
- Format: functional
attribute measured: MIC
Quick note: unit goes after the number.

Answered cases to consult:
- Cc1ccc(C(C)C)cc1O [CARVACROL]: 0.256 mg/mL
- C=C(C)C1CC=C(C=O)CC1 (configuration not stated) [PERILLALDEHYDE]: 16.4 mg/mL
- CC(C)=CCC/C(C)=C/C=O [CITRAL]: 16.4 mg/mL
- CC[C@H](C)[C@H](NC(=O)[C@@H](NC(=O)[C@@H](CCCNC(=N)N)NC(=O)[C@H](C)NC(=O)[C@H](C)NC(=O)[C@@H](N)Cc1cccc2ccccc12)[C@@H](C)CC)C(=O)N[C@@H](CC(C)C)C(=O)N[C@H](CCCNC(=N)N)C(=O)N[C@@H](Cc1c[nH]c2ccccc12)C(=O)N[C@H](CCCNC(=N)N)C(=O)N[C@@H](Cc1ccccc1)C(=O)N[C@@H](CCCNC(=N)N)C(=O)O: 0.016 mg/mL
- CC(C)c1ccc(C=O)cc1 [CUMINALDEHYDE]: 16.4 mg/mL

Query: Short answer please: MIC, Escherichia coli, entry CC(C)=CCCC(C)CC=O (configuration not stated)
Result: 16.4 mg/mL

Query: Give recorded MIC with Escherichia coli for the following compound: Cc1ccc(C(C)C)c(O)c1 [THYMOL]
Result: 0.256 mg/mL
